Read-out: matrix metalloproteinase-10 (MMP10), MMP10 (gene 4319)
Test: LTEA_HepaRG_MMP10: Life Technologies and Expression Analysis (LTEA) Assay for matrix metalloproteinase-10 (MMP10) using HepaRG (AID 2283517)
Details: mRNA level, 48 h; actives raise or lower the signal
Procedure: LTEA_HepaRG is a cell based, multiplexed-readout assay that uses HepaRG, a human liver cell line, with measurements taken at 48 hours after chemical dosing on a 96-well plate.LTEA_HepaRG_MMP10 is one of 102 assay component(s) measured in the LTEA HepaRG cell culture assay. It is a marker of Fibrosis.Data from the assay component LTEA_HepaRG_MMP10 was analyzed into 1 endpoint. […]
The source made the active and inactive calls. The calls were made as follows: active = hit-call score of the fitted dose curve at least 0.9, where 1 is the maximum; inactive = score below 0.9.
Parameter call: string, one of 1 (yes) (active), 0 (no) (inactive)

# count of solved cases: 5
CCCCC(CC)COC(=O)CCCCCCCC(=O)OCC(CC)CCCC (centres undefined); 0 (no)
CC(N)=O; 0 (no)
C/C=C/C=C/C(=O)O; 0 (no)
O=C(O)c1cccnc1; 0 (no)
NC=O; 0 (no)

# input Status in this test for O=Cc1ccccc1C=O ?
# output 0 (no)

# input Outcome? CCc1cc(C2=C(C(=O)O)N(c3ccccc3C(F)(F)F)S(=O)(=O)c3ccccc32)cc2c1OCO2
# output 0 (no)

# input What did this assay record as the result for NC1CCCCC1 ?
# output 0 (no)

# input Lab log entry: CC(=O)S[C@H](C(=O)N[C@H]1Cc2ccccc2[C@H]2CCC[C@@H](C(=O)O)N2C1=O)C(C)C — outcome as called in the assay?
# output 0 (no)

# input // outcome(item) with item = CC(C)OC(=O)C(C)(C)Oc1ccc(C(=O)c2ccc(Cl)cc2)cc1
# output 0 (no)

# input Dear colleague, could you share the recorded outcome for COc1ccc(OC(F)(F)F)cc1CN[C@H]1CCCN[C@H]1c1ccccc1 when you have a moment?
# output 1 (yes)

# input # fetch the recorded call for Oc1ccccc1O here
# output 0 (no)

# input Can you look up the reported call for CC1(C)C(=O)NC(=O)N1CO for me?
# output 0 (no)

# input What did this assay record as the result for O=C1NC(=O)C(c2ccccc2)(c2ccccc2)N1 ?
# output 0 (no)

# input Hello, I am checking results. What call was entered for Oc1ccc(O)cc1 ?
# output 0 (no)
